Assay: AUC in rat at […], iv
Assay type: ADME, organism-based
Design: dose 1.2 mg/kg, route intravenous
Details: plasma
Property Name: AUC (ng·h/mL)
// return numeric value only (unit: ng·h/mL, not printed)

Consider the compound "Cc1cc(C)cc([C@@H](CC(C)C)NC(=O)c2cc(COc3cc(F)ccc3F)ccc2CCC(=O)O)c1" and give its measured AUC. 681

###

Assay: Volume of distribution at steady state in rat at 2 mg/kg, iv
Assay type: ADME, organism-based
Parameters: dose 2 mg/kg, route intravenous
Details: in vivo, read-out: Vdss
Known Vd of a selection of molecules
// return numeric value only (unit: L/kg, not printed)

Consider the molecule "Cc1cc(C)cc(Oc2ccc(CCC(=O)O)c(C(=O)N[C@H](CC(C)C)c3cc(C)cc(C)c3)c2)c1" and give its measured Vd. 0.56

Consider the molecule "Cc1cc(C)cc(Nc2ccc(CCC(=O)O)c(C(=O)N[C@H](CC(C)C)c3cc(C)cc(C)c3)c2)c1" and give its measured Vd. 1.03
